- System: HeLa
- experimentDescription: Growth inhibition of HeLa cells after 72 hrs by MTT assay
- Type: functional, cell-based
- conditionSet: Homo sapiens
pIC50: −log10 of the molar value.
Would you mind telling me the reported pIC50 of each entry?

>>> result("COc1cc(/C=C(/O)c2ccc(F)cc2)nc(OC)n1")
"< 4.00"
>>> result("COc1cc(CC(C)(O)CF)nc(OC)n1 (configuration not stated)")
"< 3.70"
>>> result("COc1cc(CC(C)(O)C(F)(F)F)nc(OC)n1 (configuration not stated)")
"< 3.70"
>>> result("COc1nc(CBr)c(Br)c(OC)n1")
4.74
>>> result("CC(=O)OC(C)(Cc1cc(O)nc(O)n1)Cc1ccccc1F (configuration not stated)")
"< 3.70"
>>> result("COc1cc(CC(O)(c2ccc(F)cc2)c2ccc(F)cc2)nc(OC)n1")
"< 4.00"

The record that follows has no pIC50 shown yet.
-- ask Which value of pIC50 has been reported for CC(=O)OC(C)(CF)Cc1cc(O)nc(O)n1 (configuration not stated) in the records?
-- reply < 3.70

----------
- experimentDescription: Cytotoxicity against HEL cells assessed as cell growth after 7 days
- Assay type: cell-based
- conditionSet: human
observable: CC50 at 168 h (µM)
One number for each entry, in µM.

>>> readoutnumber("COc1cc(CC(C)(CF)OC(C)=O)nc(OC)n1 (centres undefined)")
50
>>> readoutnumber("COc1cc(/C=C(\\C)c2ccc(F)cc2)nc(OC)n1")
88
>>> readoutnumber("Nc1ccn(C[C@@H](CO)OCP(=O)(O)O)c(=O)n1 [CIDOFOVIR]")
51
>>> readoutnumber("Nc1nc2c(ncn2COC(CO)CO)c(=O)[nH]1 [GANCICLOVIR]")
172
>>> readoutnumber("Nc1nc2c(ncn2COCCO)c(=O)[nH]1 [ACYCLOVIR]")
649
>>> readoutnumber("COc1nc(C)c(-c2ccccc2)c(OC)n1")
34

Record CC50 at 168 h for all entries; do not skip any.
1. COc1nc(C)c(Br)c(OC)n1
2. O=c1[nH]c(=O)n([C@H]2C[C@H](O)[C@@H](CO)O2)cc1/C=C/Br [BRIVUDINE]
3. COc1nc(OC)c(Br)c(C(Br)Br)n1
4. COc1nc(CC(C)(O)C(F)(F)F)c(-c2ccccc2)c(OC)n1 (centres undefined)

-- reply
1: 18; 2: 408; 3: 1.7; 4: 35

-- ask Which value of CC50 at 168 h has been reported for COc1nc(CBr)c(Br)c(OC)n1 in the records?
-- reply 38.7

----------
Would you mind telling me the reported EC50 of each entry?
- Test system: Sindbis virus
- experimentDescription: Antiviral activity against sindbis virus in Vero cells assessed as reduction of virus plaque formation after 7 days
- Format: functional, organism-based
- conditionSet: 168 h

// below: answered molecules
>>> result("COc1cc(CC(O)(c2ccc(F)cc2)c2ccc(F)cc2)nc(OC)n1")
"> 40 µM"
>>> result("Nc1ncnc2c1ncn2C[C@H](O)CO [(S)-DHPA]")
"> 250 µM"
>>> result("COc1nc(OC)c(Br)c(C(Br)Br)n1")
"40 µM"
>>> result("COc1cc(CC(C)(O)Cc2ccccc2F)nc(OC)n1 (stereo unspecified)")
"> 130 µM"
>>> result("COc1cc(/C=C(/O)c2ccc(F)cc2)nc(OC)n1")
"200 µM"

Record EC50 for all entries; do not skip any.
1. COc1cc(/C=C(/O)C(F)(F)F)nc(OC)n1
2. COc1nc(C)c(-c2ccccc2)c(OC)n1
3. COc1cc(CC(C)(O)C(F)(F)F)nc(OC)n1 (stereo unspecified)
4. CC(=O)OC(C)(Cc1cc(O)nc(O)n1)Cc1ccccc1F (stereo unspecified)
5. NC(=O)c1ncn([C@@H]2O[C@H](CO)[C@@H](O)[C@H]2O)n1
6. COc1nc(CBr)c(Br)c(OC)n1

-- reply
> 100 µM
> 40 µM
> 200 µM
> 124 µM
50 µM
> 8 µM
